# protocol_details: parental HEK293 membrane potential modulation, confirmation, counter-screen for TRPC6 modulator project, cell-based (AID 488924)
# condition_notes: parental HEK293, membrane potential dye fluorescence; at 10 µM
The list shows a part of the results. The source made the active and inactive calls.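 Rule for the calls: active = membrane potential signal moves up or down beyond 5 SD from buffer-only wells, on both duplicate plates; inactive = the rest.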
The reply should be one of these categories: active, inactive

## Task What classification did CC(C)(C)n1nnnc1C(c1ccc2ncccc2c1)N1CCSCC1 (centres undefined) end up with in this test?
## Result inactive

## Task What classification did "N=c1c2c3c(sc2ncn1CCCN1CCOCC1)CCCCC3" end up with in this test?
## Result inactive

## Task What classification did CCc1ccc(OCC(=O)N(Cc2ccccc2)C2CCS(=O)(=O)C2)cc1 (centres undefined) end up with in this test?
## Result inactive

## Task What classification did "CN(C)c1ccc(/C=C2\NC(=S)N(Cc3ccccc3)C2=O)cc1" end up with in this test?
## Result active

## Task What classification did "Cc1ccc(NC(=S)N(CCCN2CCCC2)Cc2cccn2Cc2ccc(Cl)cc2)cc1" end up with in this test?
## Result inactive

## Task What classification did "CCOC(=O)c1sc2nc(CSCC(=O)OCc3ccc(C(=O)OC)o3)[nH]c(=O)c2c1C" end up with in this test?
## Result active

## Task What classification did O=C1CN(C(=O)c2ccccc2F)C(c2ccc(F)cc2)c2cc(F)ccc2N1 (centres undefined) end up with in this test?
## Result active

## Task What classification did "O=[N+]([O-])c1ccccc1Nc1ccc(O)cc1" end up with in this test?
## Result active

## Task What classification did "Cc1nc(N=C(N)N)nc2c(C)cccc12" end up with in this test?
## Result active

## Task What classification did "CCCc1cc(=O)oc2c(C)c(O)c(CN3CCCCC3)cc12" end up with in this test?
## Result inactive

## Task What classification did CCCCN(CCCC)CC(O)Cn1c2ccccc2c(=O)c2ccccc21 (centres undefined) end up with in this test?
## Result inactive

## Task What classification did COc1ccc(C(=O)C2CCCN(Cc3cccn3-c3ccccn3)C2)c(C)c1 (centres undefined) end up with in this test?
## Result inactive

## Task What classification did "CN(CC(=O)Nc1ccccc1[N+](=O)[O-])Cc1ccc(Br)cc1" end up with in this test?
## Result inactive

## Task What classification did CC(C)C(c1nnnn1CCc1ccccc1)N1CCN(C(=O)c2ccco2)CC1 (centres undefined) end up with in this test?
## Result active
